For each entry below, report its half-life value.
# EXPERIMENT: Half life time in dog was reported in Discrete dosage
# Format: ADME, organism-based, Canis lupus familiaris
# ASSAY_CONTEXT: in vivo
Give the value in min but do not write min after it.

[ask] Indicate its recorded half-life; the compound in question is "CC(C)[C@@H]1C(=O)N(S(C)(=O)=O)[C@@H]2CCN(C(=O)/C=C/CNC3CC3)[C@H]21"
[reply] 54

[ask] Indicate its recorded half-life; the compound in question is CC(C)C1C(=O)N(S(C)(=O)=O)C2CCN(C(=O)/C=C/CN3CCCCC3)C12 (stereo not given)
[reply] 108

[ask] Indicate its recorded half-life; the compound in question is CC(C)C1C(=O)N(S(C)(=O)=O)C2CCN(C(=O)c3ccc(CNC4CC4)cc3)C12 (stereo not given)
[reply] 30

[ask] Indicate its recorded half-life; the compound in question is CCCN(C)Cc1ccc(C(=O)N2CCC3C2C(C(C)C)C(=O)N3S(C)(=O)=O)cc1 (stereo not given)
[reply] 12

[ask] Indicate its recorded half-life; the compound in question is "CC(C)[C@@H]1C(=O)N(S(C)(=O)=O)[C@@H]2CCN(C(=O)c3ccc(CCN4CCCCC4)cc3)[C@H]21"
[reply] 12

---

# EXPERIMENT: half life was reported in dog after intravenous administration
# Format: ADME, organism-based, Canis lupus familiaris
# ASSAY_CONTEXT: in vivo
MEASURED_QUANTITY: half-life (h)
Give the value in h but do not write h after it.

[ask] Indicate its recorded half-life; the compound in question is "CC(C)[C@@H]1C(=O)N(S(C)(=O)=O)[C@@H]2CCN(C(=O)c3cnc(CNC4CC4)cn3)[C@H]21.Cl"
[reply] 0.4

[ask] Indicate its recorded half-life; the compound in question is "CC(C)[C@@H]1C(=O)N(S(C)(=O)=O)[C@@H]2CCN(C(=O)C3CN(CC(C)(C)C)C3)[C@H]21.Cl"
[reply] 1.8

[ask] Indicate its recorded half-life; the compound in question is "CC(C)[C@@H]1C(=O)N(S(C)(=O)=O)[C@@H]2CCN(C(=O)/C=C/CN3CCCCC3)[C@H]21.Cl"
[reply] 1.5

[ask] Indicate its recorded half-life; the compound in question is "CC(C)[C@@H]1C(=O)N(S(C)(=O)=O)[C@@H]2CCN(C(=O)c3coc(CN4CCCC4)n3)[C@H]21.Cl"
[reply] 1

---

For each entry below, report its half-life value.
# EXPERIMENT: Half life time in dog was reported in cassette dosage
# Format: ADME, organism-based, Canis lupus familiaris
# ASSAY_CONTEXT: in vivo
Give the value in min but do not write min after it.

[ask] Indicate its recorded half-life; the compound in question is "CC(C)[C@@H]1C(=O)N(S(C)(=O)=O)[C@@H]2CCN(C(=O)c3ccc(CCN4CCCCC4)cc3)[C@H]21"
[reply] 30

[ask] Indicate its recorded half-life; the compound in question is "CC(C)[C@@H]1C(=O)N(S(C)(=O)=O)[C@@H]2CCN(C(=O)c3ccc(CN(C)C(C)C)c(Br)c3)[C@H]21"
[reply] 18

[ask] Indicate its recorded half-life; the compound in question is CC(C)C1C(=O)N(S(C)(=O)=O)C2CCN(C(=O)c3csc(CN4CCCC4)n3)C12 (stereo unspecified)
[reply] 60

[ask] Indicate its recorded half-life; the compound in question is CC(C)C1C(=O)N(S(C)(=O)=O)C2CCN(C(=O)c3ccc(CNC4CC4)nc3)C12 (stereo unspecified)
[reply] 42

[ask] Indicate its recorded half-life; the compound in question is CC(C)C1C(=O)N(S(C)(=O)=O)C2CCN(C(=O)/C=C/CN3CCCCC3)C12 (stereo unspecified)
[reply] 120

[ask] Indicate its recorded half-life; the compound in question is CCCN(C)Cc1ccc(C(=O)N2CCC3C2C(C(C)C)C(=O)N3S(C)(=O)=O)cc1 (stereo unspecified)
[reply] 42
